Where do the numbers come from? From patent US20250186408A1.

- assay-target: ADRB2 (Homo sapiens, UniProt P07550)
- assay-text: cAMP ADRB2 Agonist
- Assay type: cell-based
reported-property: EC50

**Query** Give EC50 for CC(C)(C)c1ccc(C#CC(O)c2ccccc2)cc1 (racemic)
**Result** > 10 µM

###

- assay-target: UniProt P08908
- Sequence (P08908 whole entry): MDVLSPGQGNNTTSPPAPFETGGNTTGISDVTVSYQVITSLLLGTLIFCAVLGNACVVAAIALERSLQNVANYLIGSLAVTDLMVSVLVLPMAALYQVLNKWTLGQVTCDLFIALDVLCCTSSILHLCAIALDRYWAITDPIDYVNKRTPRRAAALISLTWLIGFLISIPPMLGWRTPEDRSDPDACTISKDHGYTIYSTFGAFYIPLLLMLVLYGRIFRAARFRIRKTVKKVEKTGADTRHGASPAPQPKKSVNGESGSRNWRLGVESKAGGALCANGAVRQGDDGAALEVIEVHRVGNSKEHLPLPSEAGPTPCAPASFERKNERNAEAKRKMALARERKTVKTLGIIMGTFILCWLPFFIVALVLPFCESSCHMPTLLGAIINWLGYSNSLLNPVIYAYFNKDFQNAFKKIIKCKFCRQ
- assay-text: cAMP HTR1A Antagonist
Would you kindly list IC50 for each of these compounds?

Clc1cccc(C#Cc2n[nH]c3ncccc23)c1 | > 10 µM

In the following, a different compound is considered.
**Query** Give IC50 for CC(C)(C)c1ccc(C#CC(O)c2ccccc2)cc1 (racemic)
**Result** > 10 µM

###

- assay-text: Caco-2 permeability
- Format: in vitro ADME
- recorded-conditions: human; Caco-2, pH 6.5 and 7.4, 10 μM, basolateral to apical
Would you kindly list Papp B→A at 10 μM for each of these compounds?
Give bare numbers, in ×10⁻⁶ cm/s.

CC(C)(C)c1ccc(C#CC(O)c2ccccc2)cc1 (racemic) | 0.1

In the following, a different compound is considered.
**Query** Give Papp B→A at 10 μM for Clc1cccc(C#Cc2n[nH]c3ncccc23)c1
**Result** 0.7

###

Would you kindly list mean seizure duration for each of these compounds?
- System: male NMRI mice
- assay-text: Mouse 6-Hz (44 mA) psychomotor seizure model
- Format: in vivo
- recorded-conditions: 600 mg/kg i.p., 30 min before stimulation
Numbers only, in s.

Go through the list and state mean seizure duration for each entry.
1. Clc1cccc(C#Cc2n[nH]c3ncccc23)c1
2. CC(C)(C)c1ccc(-c2cc(=O)c3cccnc3[nH]2)cc1
3. CC(C)(C)c1ccc(C#CC(O)c2ccccc2)cc1 (racemic)
4. Nc1ncccc1C(=O)N1CCN(c2cccc(Cl)c2)CC1

**Result**
1: 0.8; 2: 0; 3: 1.00; 4: 0.5

###

- Tested on: EKP-induced epileptiform discharges in zebrafish larvae
- assay-text: Zebrafish EKP seizure model, electrophysiology (non-invasive LFP recordings, PSD analysis)
- Format: in vivo, zebrafish (Danio rerio)
- recorded-conditions: 2 μM, 22 h incubation, 7 dpf larvae; mean, normalized PSD 20-90 Hz
Would you kindly list efficacy against EKP-induced epileptiform discharges 2 μM for each of these compounds?
Answers are plain numbers, in %.

COc1ccccc1C#CC(=O)c1ccccc1 | 52
CCCCCCC#CC(=O)c1cccnc1N | 31
Cc1ccc(C#CC(=O)c2ccccc2)cc1 | 28
Clc1cccc(C#Cc2n[nH]c3ccccc23)c1 | 60
Nc1ncccc1C(=O)C#CC1CCCCC1 | 69
COc1cccc(C#CC(=O)c2ccccc2)c1 | 29
Nc1ncccc1C(=O)C#Cc1ccc(C(F)(F)F)cc1 | 47
CC(C)(C)c1ccc(C#CC(=O)c2ccccc2N)cc1 | 60

**Query** Give efficacy against EKP-induced epileptiform discharges 2 μM for CC(C)(C)c1ccc(C#CC(=O)c2cccnc2)cc1
**Result** −49

###

- assay-target: DRD2S (Homo sapiens, UniProt P14416)
- Sequence (P14416 1-414 isoform P14416-2): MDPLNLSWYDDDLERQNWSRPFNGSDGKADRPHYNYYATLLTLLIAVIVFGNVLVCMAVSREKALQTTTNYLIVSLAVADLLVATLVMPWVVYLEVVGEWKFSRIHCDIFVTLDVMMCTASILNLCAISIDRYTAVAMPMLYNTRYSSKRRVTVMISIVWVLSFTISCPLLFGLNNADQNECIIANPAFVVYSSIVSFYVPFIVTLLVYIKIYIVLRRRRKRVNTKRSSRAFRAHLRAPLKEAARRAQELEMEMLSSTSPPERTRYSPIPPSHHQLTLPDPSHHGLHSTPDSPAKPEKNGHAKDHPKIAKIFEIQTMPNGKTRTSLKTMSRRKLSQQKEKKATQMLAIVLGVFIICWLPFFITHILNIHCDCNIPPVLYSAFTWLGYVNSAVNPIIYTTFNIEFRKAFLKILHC
- assay-text: cAMP DRD2S Agonist
Would you kindly list EC50 for each of these compounds?

CC(C)(C)c1ccc(C#CC(O)c2ccccc2)cc1 (racemic) | > 10 µM

**Query** Give EC50 for Clc1cccc(C#Cc2n[nH]c3ncccc23)c1
**Result** > 10 µM

###

- assay-target: HRH2 (Homo sapiens, UniProt P25021)
- Sequence (P25021 whole entry): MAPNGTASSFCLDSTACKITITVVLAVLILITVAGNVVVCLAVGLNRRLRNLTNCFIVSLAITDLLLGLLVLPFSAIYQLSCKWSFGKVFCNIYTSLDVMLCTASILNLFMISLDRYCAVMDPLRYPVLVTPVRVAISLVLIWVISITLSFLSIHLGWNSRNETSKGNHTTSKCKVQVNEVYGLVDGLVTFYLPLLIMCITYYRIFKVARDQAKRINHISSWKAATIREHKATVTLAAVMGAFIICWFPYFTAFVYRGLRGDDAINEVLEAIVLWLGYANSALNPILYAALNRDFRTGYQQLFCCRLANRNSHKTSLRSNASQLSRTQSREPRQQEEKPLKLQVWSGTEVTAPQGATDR
- assay-text: cAMP HRH2 Antagonist
- Type: cell-based
reported-property: IC50

**Query** Give IC50 for CC(C)(C)c1ccc(C#CC(O)c2ccccc2)cc1 (racemic) [Compound 3.3]
**Result** > 10 µM

###

- assay-target: KvLQT1/minK (Homo sapiens, UniProt P51787)
- assay-text: Ion Channel KvLQT1/minK Blocker
- Format: cell-based
- recorded-conditions: Ion Channel KvLQT1/minK Blocker; read-out: RC50, result type IC50
reported-property: IC50

**Query** Give IC50 for Clc1cccc(C#Cc2n[nH]c3ncccc23)c1
**Result** > 10 µM

###

Measured IC50 on AChE (Homo sapiens, UniProt P22303) follows.
Sequence (P22303 32-614): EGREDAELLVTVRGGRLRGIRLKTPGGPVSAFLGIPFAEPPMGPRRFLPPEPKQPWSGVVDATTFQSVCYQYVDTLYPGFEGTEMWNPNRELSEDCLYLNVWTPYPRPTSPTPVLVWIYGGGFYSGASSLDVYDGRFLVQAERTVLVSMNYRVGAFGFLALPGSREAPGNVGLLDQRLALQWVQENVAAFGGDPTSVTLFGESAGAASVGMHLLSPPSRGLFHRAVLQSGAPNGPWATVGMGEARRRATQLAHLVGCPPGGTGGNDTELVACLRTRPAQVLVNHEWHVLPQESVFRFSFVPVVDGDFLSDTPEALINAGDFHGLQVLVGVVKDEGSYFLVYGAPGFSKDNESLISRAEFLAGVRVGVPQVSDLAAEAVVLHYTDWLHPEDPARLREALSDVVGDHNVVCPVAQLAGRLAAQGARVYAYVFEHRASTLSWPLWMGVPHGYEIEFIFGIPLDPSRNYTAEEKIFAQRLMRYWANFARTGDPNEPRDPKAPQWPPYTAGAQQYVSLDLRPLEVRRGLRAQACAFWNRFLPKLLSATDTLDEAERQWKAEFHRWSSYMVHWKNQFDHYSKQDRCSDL

Clc1cccc(C#Cc2n[nH]c3ncccc23)c1 | > 10 µM

In the following, a different compound is considered.
**Query** Give IC50 for CC(C)(C)c1ccc(C#CC(O)c2ccccc2)cc1 (racemic)
**Result** > 10 µM

###

- assay-target: MAOA (Homo sapiens, UniProt P21397)
- Construct: purchased Sigma
- Sequence (P21397 whole entry): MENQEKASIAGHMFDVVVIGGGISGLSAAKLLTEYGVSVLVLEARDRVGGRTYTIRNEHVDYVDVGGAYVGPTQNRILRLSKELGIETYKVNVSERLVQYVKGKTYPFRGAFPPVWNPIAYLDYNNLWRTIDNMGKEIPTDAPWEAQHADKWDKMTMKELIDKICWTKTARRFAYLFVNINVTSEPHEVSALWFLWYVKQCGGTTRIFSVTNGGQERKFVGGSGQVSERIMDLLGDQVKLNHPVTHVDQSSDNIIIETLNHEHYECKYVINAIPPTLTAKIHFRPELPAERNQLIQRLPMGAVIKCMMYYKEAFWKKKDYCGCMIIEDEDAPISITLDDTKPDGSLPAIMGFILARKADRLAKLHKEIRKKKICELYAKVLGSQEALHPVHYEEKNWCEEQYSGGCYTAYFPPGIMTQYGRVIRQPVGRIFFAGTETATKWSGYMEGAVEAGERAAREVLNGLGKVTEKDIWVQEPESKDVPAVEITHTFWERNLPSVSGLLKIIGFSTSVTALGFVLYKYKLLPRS
- assay-text: Enzymatic MAOA Inhibitor
- Type: biochemical
reported-property: IC50

**Query** Give IC50 for CC(C)(C)c1ccc(C#CC(O)c2ccccc2)cc1 (racemic) [Compound 3.3]
**Result** > 10 µM

###

Would you kindly list IC50 for each of these compounds?
- assay-target: COX2 (Homo sapiens, UniProt P35354)
- Construct: purchased BPS Bioscience
- Sequence (P35354 18-604): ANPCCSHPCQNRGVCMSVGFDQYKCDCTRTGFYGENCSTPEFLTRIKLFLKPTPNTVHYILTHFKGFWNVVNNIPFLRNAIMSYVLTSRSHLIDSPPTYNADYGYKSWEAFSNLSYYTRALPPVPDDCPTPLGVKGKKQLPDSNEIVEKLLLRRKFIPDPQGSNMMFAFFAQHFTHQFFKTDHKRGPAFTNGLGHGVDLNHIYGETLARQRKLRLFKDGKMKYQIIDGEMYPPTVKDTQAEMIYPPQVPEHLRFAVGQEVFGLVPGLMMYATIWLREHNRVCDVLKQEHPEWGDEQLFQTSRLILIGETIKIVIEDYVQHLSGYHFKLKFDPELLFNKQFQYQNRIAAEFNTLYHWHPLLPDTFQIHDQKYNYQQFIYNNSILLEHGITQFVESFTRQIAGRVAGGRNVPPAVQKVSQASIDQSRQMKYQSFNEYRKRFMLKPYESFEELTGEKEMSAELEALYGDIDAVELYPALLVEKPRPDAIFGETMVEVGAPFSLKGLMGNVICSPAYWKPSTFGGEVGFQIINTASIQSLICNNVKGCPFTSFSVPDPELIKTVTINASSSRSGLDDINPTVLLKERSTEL
- assay-text: Enzymatic COX2 Inhibitor
- Format: biochemical
- recorded-conditions: Enzymatic COX2 Inhibitor; read-out: RC50, result type IC50

Clc1cccc(C#Cc2n[nH]c3ncccc23)c1 [Compound 10.1] | > 10 µM

In the following, a different compound is considered.
**Query** Param request: IC50 | system COX2 (Homo sapiens, UniProt P35354) | item CC(C)(C)c1ccc(C#CC(O)c2ccccc2)cc1 (racemic) [Compound 3.3]
**Result** > 10 µM

###

Would you kindly list IC50 for each of these molecules?
- assay-target: hERG (Homo sapiens)
- Sequence (Q12809 whole entry): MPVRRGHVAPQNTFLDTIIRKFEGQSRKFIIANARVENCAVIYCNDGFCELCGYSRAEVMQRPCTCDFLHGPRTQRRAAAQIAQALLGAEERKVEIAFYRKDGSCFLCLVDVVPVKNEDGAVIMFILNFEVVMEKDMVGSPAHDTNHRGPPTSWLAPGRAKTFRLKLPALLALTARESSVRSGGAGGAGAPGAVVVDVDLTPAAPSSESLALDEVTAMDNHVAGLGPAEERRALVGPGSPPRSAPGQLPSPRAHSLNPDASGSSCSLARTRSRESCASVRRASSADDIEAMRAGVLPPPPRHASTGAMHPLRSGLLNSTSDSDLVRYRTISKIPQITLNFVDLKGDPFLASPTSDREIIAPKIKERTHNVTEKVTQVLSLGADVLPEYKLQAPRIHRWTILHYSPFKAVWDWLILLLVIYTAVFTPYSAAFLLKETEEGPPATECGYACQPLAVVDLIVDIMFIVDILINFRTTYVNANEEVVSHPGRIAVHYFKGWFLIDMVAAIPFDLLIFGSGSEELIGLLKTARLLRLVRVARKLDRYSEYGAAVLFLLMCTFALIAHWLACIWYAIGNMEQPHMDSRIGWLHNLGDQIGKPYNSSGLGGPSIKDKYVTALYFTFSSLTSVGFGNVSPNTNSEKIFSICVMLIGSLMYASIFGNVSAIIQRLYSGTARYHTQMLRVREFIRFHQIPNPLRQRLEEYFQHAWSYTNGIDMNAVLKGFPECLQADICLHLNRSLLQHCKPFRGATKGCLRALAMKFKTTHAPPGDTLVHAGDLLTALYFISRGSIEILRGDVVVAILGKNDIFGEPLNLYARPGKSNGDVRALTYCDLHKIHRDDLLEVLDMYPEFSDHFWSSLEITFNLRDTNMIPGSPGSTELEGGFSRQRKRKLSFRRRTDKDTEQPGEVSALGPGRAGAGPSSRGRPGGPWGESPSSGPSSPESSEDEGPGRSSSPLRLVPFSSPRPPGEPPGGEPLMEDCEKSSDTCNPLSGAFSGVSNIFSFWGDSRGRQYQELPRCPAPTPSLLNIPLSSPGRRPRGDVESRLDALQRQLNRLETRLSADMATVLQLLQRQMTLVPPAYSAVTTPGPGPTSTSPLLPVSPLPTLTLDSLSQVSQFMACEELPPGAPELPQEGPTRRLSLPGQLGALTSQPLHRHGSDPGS
- assay-text: Ion Channel hERG Blocker
- recorded-conditions: read-out: RC50, result type IC50

Clc1cccc(C#Cc2n[nH]c3ncccc23)c1 [Compound 10.1] | > 10 µM

In the following, a different molecule is considered.
**Query** Give IC50 for CC(C)(C)c1ccc(C#CC(O)c2ccccc2)cc1 (racemic) [Compound 3.3]
**Result** > 10 µM

###

- assay-target: HTR2A (Homo sapiens, UniProt P28223)
- Sequence (P28223 whole entry): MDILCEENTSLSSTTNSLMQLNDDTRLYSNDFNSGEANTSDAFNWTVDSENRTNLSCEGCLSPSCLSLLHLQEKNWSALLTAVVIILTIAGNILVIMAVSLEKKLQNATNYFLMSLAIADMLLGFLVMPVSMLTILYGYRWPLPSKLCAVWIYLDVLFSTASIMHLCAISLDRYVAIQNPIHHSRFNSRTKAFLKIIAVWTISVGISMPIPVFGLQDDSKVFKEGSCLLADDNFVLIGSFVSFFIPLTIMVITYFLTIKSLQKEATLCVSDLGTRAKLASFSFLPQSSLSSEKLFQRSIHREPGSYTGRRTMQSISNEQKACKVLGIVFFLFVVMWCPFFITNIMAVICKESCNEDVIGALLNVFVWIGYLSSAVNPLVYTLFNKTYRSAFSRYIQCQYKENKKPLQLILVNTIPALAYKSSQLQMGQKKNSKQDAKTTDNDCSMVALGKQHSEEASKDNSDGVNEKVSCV
- assay-text: Calcium Flux HTR2A Antagonist
pIC50: −log10 of the molar value.
reported-property: pIC50

Clc1cccc(C#Cc2n[nH]c3ncccc23)c1 | < 5.00

**Query** Param request: pIC50 | system HTR2A (Homo sapiens, UniProt P28223) | item CC(C)(C)c1ccc(C#CC(O)c2ccccc2)cc1 (racemic)
**Result** < 5.00

###

- assay-target: AVPR1A (Homo sapiens, UniProt P37288)
- Sequence (P37288 whole entry): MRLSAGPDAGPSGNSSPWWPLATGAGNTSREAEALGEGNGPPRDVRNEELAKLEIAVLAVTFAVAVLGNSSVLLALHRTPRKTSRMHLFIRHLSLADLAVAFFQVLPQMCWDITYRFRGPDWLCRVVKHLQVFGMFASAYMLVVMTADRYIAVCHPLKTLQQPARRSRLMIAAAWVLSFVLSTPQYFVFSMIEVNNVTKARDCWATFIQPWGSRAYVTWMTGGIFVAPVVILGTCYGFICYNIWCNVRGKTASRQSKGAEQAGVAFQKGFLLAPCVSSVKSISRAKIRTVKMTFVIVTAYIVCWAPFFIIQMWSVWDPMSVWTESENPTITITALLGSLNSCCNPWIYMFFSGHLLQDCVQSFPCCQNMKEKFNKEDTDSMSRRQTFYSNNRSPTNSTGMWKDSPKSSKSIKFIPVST
- assay-text: Calcium Flux AVPR1A Antagonist
- recorded-conditions: Calcium Flux AVPR1A Antagonist; read-out: RC50, result type IC50
pIC50: −log10 of the molar value.
reported-property: pIC50

CC(C)(C)c1ccc(C#CC(O)c2ccccc2)cc1 (racemic) | < 5.00

**Query** Param request: pIC50 | system AVPR1A (Homo sapiens, UniProt P37288) | item Clc1cccc(C#Cc2n[nH]c3ncccc23)c1
**Result** < 5.00

###

- assay-target: CHRM2 (Homo sapiens)
- Sequence (P08172 1-466): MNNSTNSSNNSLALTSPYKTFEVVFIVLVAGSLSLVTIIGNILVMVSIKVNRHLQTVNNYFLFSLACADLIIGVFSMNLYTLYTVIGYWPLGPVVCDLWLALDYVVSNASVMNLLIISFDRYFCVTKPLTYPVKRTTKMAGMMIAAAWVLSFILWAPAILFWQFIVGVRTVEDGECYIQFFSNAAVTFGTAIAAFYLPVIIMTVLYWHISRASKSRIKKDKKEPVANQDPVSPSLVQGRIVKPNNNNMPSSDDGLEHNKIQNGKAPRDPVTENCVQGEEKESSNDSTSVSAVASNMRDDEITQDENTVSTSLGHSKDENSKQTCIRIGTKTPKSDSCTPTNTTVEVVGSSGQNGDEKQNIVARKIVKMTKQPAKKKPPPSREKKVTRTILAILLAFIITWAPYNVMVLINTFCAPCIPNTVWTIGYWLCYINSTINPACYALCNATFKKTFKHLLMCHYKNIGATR
reported-property: pIC50
Answers are plain numbers, as −log10 of the molar value.

**Query** Give pIC50 for CC(C)(C)c1ccc(C#CC(O)c2ccccc2)cc1 (racemic)
**Result** 5.37

###

Would you kindly list Cmax for each of these compounds?
- assay-text: in vivo
- recorded-conditions: male, NMRI, mouse, plasma, ip, 300 mg/kg
Give bare numbers, in µM.

CC(C)(C)c1ccc(C#CC(O)c2ccccc2)cc1 (racemic) | 62

In the following, a different compound is considered.
**Query** Give Cmax for Clc1cccc(C#Cc2n[nH]c3ncccc23)c1
**Result** 27

###

- Test system: male NMRI mice
- assay-text: Mouse 6-Hz (44 mA) psychomotor seizure model
- Assay type: in vivo
- recorded-conditions: 100 mg/kg i.p., 30 min before stimulation
reported-property: mean seizure duration (s)
Give bare numbers, in s.

The cases that follow already have their mean seizure duration on record.
CC(C)(C)c1ccc(-c2cc(=O)c3cccnc3[nH]2)cc1 | 9.7
CC(C)(C)c1ccc(C#CC(O)c2ccccc2)cc1 (racemic) | 7.7
Clc1cccc(C#Cc2n[nH]c3ncccc23)c1 | 6.0

In the following, a different molecule is considered.
**Query** Param request: mean seizure duration | system male NMRI mice | item Nc1ncccc1C(=O)N1CCN(c2cccc(Cl)c2)CC1
**Result** 4.3
